tested on: Calf thymus DNA; assay: Binding affinity to calf thymus DNA assessed as ratio of final absorbance area to absorbance of compound at 100 uM after 24 hrs by UV spectrophotometer analysis; format: nucleic-acid assay; conditions: Bos taurus
TEST_READOUT: Ratio
Please reply with the number alone, leaving off any unit.

input: Return reported Ratio for target or system Calf thymus DNA, item `Cc1ccc2c(c1)nc1cc(N)ccc1[n+]2[O-]` .
output: 0.92

input: Return reported Ratio for target or system Calf thymus DNA, item `CN1CCN(c2ccc3[nH]c(-c4ccc5[nH]c(-c6ccc(O)cc6)nc5c4)nc3c2)CC1` .
output: 0.57

input: Return reported Ratio for target or system Calf thymus DNA, item `Nc1ccc2nc3ccc(Br)cc3nc2c1` .
output: 0.9

input: Return reported Ratio for target or system Calf thymus DNA, item `O=C1c2c(O)ccc(O)c2C(=O)c2c(NCCNCCO)ccc(NCCNCCO)c21` .
output: 0

* * *

# reported Kq; entries follow
tested on: Calf thymus DNA; experiment: Binding affinity to calf thymus DNA assessed as fluorescence quenching at 20 uM after 24 hrs by fluorescence spectroscopy analysis; assay type: nucleic-acid assay; parameters: unit not given here; details: Bos taurus

input: Specify reported Kq for the molecule shown: `Cc1ccc2c(c1)nc1cc(N)ccc1[n+]2[O-]`
output: 5.3

input: Specify reported Kq for the molecule shown: `Nc1ccc2c(c1)nc1cc(Br)ccc1[n+]2[O-]`
output: 4.2

input: Specify reported Kq for the molecule shown: `Cc1ccc2nc3ccc(N)cc3nc2c1`
output: 6.1

input: Specify reported Kq for the molecule shown: `Nc1ccc2nc3ccc(Br)cc3nc2c1`
output: 7.3

input: Specify reported Kq for the molecule shown: `Nc1ccc2c(c1)[n+]([O-])c1cc(F)ccc1[n+]2[O-]`
output: 7.8

* * *

# reported viability at 168 h, 20 µM; entries follow
assay: Cytotoxicity against chinese hamster V79 cells assessed as survival fraction under normoxic condition at 20 uM after 7 days by crystal violet staining relative to control; format: cell-based, Cricetulus griseus; settings: read-out: Activity
Note: a bare number is incomplete; add the unit.

Known results for compounds:
[
  {
    "SMILES": "Nc1ccc2c(c1)nc1cc(Br)ccc1[n+]2[O-]",
    "viability at 168 h, 20 µM": "0%"
  },
  {
    "SMILES": "Nc1ccc2c(c1)[n+]([O-])c1cc(Cl)c(Cl)cc1[n+]2[O-]",
    "viability at 168 h, 20 µM": "2%"
  },
  {
    "SMILES": "Cc1ccc2nc3ccc(N)cc3nc2c1",
    "viability at 168 h, 20 µM": "98%"
  },
  {
    "SMILES": "Cc1cc2c(cc1F)[n+]([O-])c1ccc(O)cc1[n+]2[O-]",
    "viability at 168 h, 20 µM": "100%"
  },
  {
    "SMILES": "Nc1ccc2c(c1)[n+]([O-])c1cc(F)ccc1[n+]2[O-]",
    "viability at 168 h, 20 µM": "0%"
  },
  {
    "SMILES": "Cc1ccc2c(c1)[n+]([O-])c1cc(O)c3ncccc3c1[n+]2[O-]",
    "viability at 168 h, 20 µM": "49%"
  }
]

Continue with the compound presented below.
input: Specify reported viability at 168 h, 20 µM for the compound shown: `Nc1ccc2nc3ccc(Br)cc3nc2c1`
output: 0%
